kon values by entry
biological target: T1, human HER3-ECD-His (human, UniProt P21860 20-643); experiment: Octet (BLI)
T1 construct: extracellular domain; Fusion protein of the extracellular domain of human HER3 and a His tag; also called hHER3-ECD-His; human HER3 extracellular domain protein; not shown: His tag
MEASURED_ATTRIBUTE: kon

BINDER	MEASURED_ATTRIBUTE	MEASURED_VALUE
cHE7-G1W (antibody, human IgG1, V domains shown, also called chimeric HE7 antibody; not shown: human IgG1 heavy chain constant region, GenBank AXN93653.1; human kappa light chain constant region, GenBank AWK57456.1) VH: EVQLQQSGPDLVKPGTSVKMSCKASGYTFTDYYMHWVRQSHGKSLEWIGYINPNNGDAIYNQKFKGKATLTVDKSSTTAYMALRSLTSEDSAVYFCATYDYGGDFYFDVWGTGTTVTVSS VL: DIELTQSPALMSASPGEKVTMTCSASSSVSYMYWYQQKPRSSPKPWIYLTSNLASGVPARFSGSGSGTSYSLTISSMEAEDAATYYCQQWSRNPLTFGAGTKLELKR	kon	425000 M⁻¹ s⁻¹
cHE4-G1W (antibody, human IgG1, V domains shown, also called chimeric HE4 antibody; cHE4-G1W4; not shown: human IgG1 heavy chain constant region, GenBank AXN93653.1; human kappa light chain constant region, GenBank AWK57456.1) VH: EVQLVESGGGLVKPGGSLKLSCAASGFTFSSYVMSWVRQTPEKRLEWVATISDGDSSTYYPDNVKGRFTISRDNAKNNLFLQMSHLKSEDTAMYFCARDKGHGYDEGAFVYWGQGTLVTVSA VL: DIQMTQSPASLSASVEETVTITCRASENIYSYLAWYQQKQGKSPQLLVYNAKTLAEGVPSRFSGSGSGTEFSLKINSLQPEDFGSYYCQNHYGTPYTFGGGTKLEIKQ	kon	573000 M⁻¹ s⁻¹

Reference source for all entries: patent EP4725966A1
